assay: Octanol-water partition coefficient (logP OW), 19F NMR method with reference compound; details: octanol/water, Error (mean logP with standard deviation), triplicate; three decimals
Overview of reported logP across a group of compounds:
readoutKind: logP

compoundStructureString | readoutKind | assayValue
CO[C@H]1O[C@H](CF)[C@H](F)[C@H](O)[C@H]1O | logP | -0.902
CO[C@H]1O[C@H](CF)[C@@H](F)[C@H](O)[C@H]1O | logP | -0.707
CO[C@@H]1O[C@H](CF)[C@H](F)[C@H](O)[C@H]1O | logP | -1.25
CO[C@@H]1O[C@H](CF)[C@@H](F)[C@H](O)[C@H]1O | logP | -1.05

###

assay: Molar membrane partition coefficient (logKp) by 19F MAS solid-state NMR in lipid vesicles; assay type: physicochemical; settings: Table S2; POPC; glycosides, first listed 19F resonance

compoundStructureString | Molar Partition Coefficient (logKP)
CO[C@H]1O[C@H](CF)[C@@H](F)[C@H](O)[C@H]1O | 1.98
CO[C@@H]1O[C@H](CF)[C@@H](F)[C@H](O)[C@H]1O | 1.93
CO[C@H]1O[C@H](CF)[C@H](F)[C@H](O)[C@H]1O | 1.80
CO[C@@H]1O[C@H](CF)[C@H](F)[C@H](O)[C@H]1O | 1.69

###

assay: Molar membrane partition coefficient (logKp) by 19F MAS solid-state NMR in lipid vesicles; format: physicochemical; conditions: multilamellar POPC vesicles, Table S1; hydration 30 % w/v, substrate/lipid 0.100 mole/mole
readoutKind: Kp at 0.1 mole/mole substrate/lipid

compoundStructureString | readoutKind | assayValue
OCCC(F)(F)CCO | Kp at 0.1 mole/mole substrate/lipid | 70.7

###

Measured Molar Partition Coefficient (logKP) accompanies every entry in the list below.
assay: Molar membrane partition coefficient (logKp) by 19F MAS solid-state NMR in lipid vesicles; format: physicochemical; conditions: Table S2; POPC; glycosides, second listed 19F resonance
readoutKind: Molar Partition Coefficient (logKP)

compoundStructureString | assayValue
CO[C@H]1O[C@H](CF)[C@@H](F)[C@H](O)[C@H]1O | 1.98
CO[C@@H]1O[C@H](CF)[C@H](F)[C@H](O)[C@H]1O | 1.64
CO[C@@H]1O[C@H](CF)[C@@H](F)[C@H](O)[C@H]1O | 1.95
CO[C@H]1O[C@H](CF)[C@H](F)[C@H](O)[C@H]1O | 1.87

###

test: Molar membrane partition coefficient (logKp) by 19F MAS solid-state NMR in lipid vesicles; format: physicochemical; conditions: multilamellar POPC vesicles, Table S1; hydration 20 % w/v, substrate/lipid 0.100 mole/mole

compoundStructureString | Kp at 0.1 mole/mole substrate/lipid
OCCC(F)(F)CCO | 89.4

###

test: Molar membrane partition coefficient (logKp) by 19F MAS solid-state NMR in lipid vesicles; format: physicochemical; settings: multilamellar POPC vesicles, Table S1; mean over all hydrations (10-30 % w/v) and substrate/lipid ratios (0.010-0.100)

compoundStructureString | Kp
OCCC(F)(F)CCO | 71.6

###

assay: Molar membrane partition coefficient (logKp) by 19F MAS solid-state NMR in lipid vesicles; format: physicochemical; settings: multilamellar POPC vesicles, Table S1; hydration 20 % w/v, substrate/lipid 0.010 mole/mole

compoundStructureString | Kp at 0.01 mole/mole substrate/lipid
OCCC(F)(F)CCO | 93.9
